System: A498 renal
Assay: NCI-60 one-dose screen, 48 h (100 = growth as untreated, 0 = no growth, -100 = all killed)
Settings: 10 µM unless noted
This is part of a sample that, as a whole, favours compounds with a hit. Of some 83,000 tested, about 20% had one in any assay.
ASSAY READOUT: growth (%)

INSERT INTO measurements (molecular_string, units_text, result) VALUES
  ('Cc1ccc(N=c2nc3sc4c(C)ccc(C)c4n3c(N)c2C#N)cc1', '%', 110),
  ('COc1ccccc1-n1c(SCc2cc(OC)c(OC)c(OC)c2)nc2ccc(Cl)cc2c1=O', '%', 5.01),
  ('CC(=O)Nc1ccccc1-c1n[nH]c(=O)[nH]c1=O', '%', 87.8),
  ('COCCOC1=C(Cl)C(=O)c2ccccc2C1=O', '%', 67.6),
  ('Fc1c[c-]c(-c2ccccn2)c(F)c1.Fc1c[c-]c(-c2ccccn2)c(F)c1.[Cl][Pt+].[Cl][Pt+].c1ccc([PH+](C[PH+](c2ccccc2)c2ccccc2)c2ccccc2)cc1', '%', 21.6),
  ('CC(=O)Nc1ccc(S(=O)(=O)N/N=C\c2ccc(Cl)c(Cl)c2)cc1', '%', 72.7),
  ('CCOC(=O)c1c(Cl)c2c(n1Cc1ccc(OC)cc1)-c1oncc1CCC2', '%', 65.5),
  ('Cc1ccc2c(N/N=C\c3ccco3)cc(C)nc2n1', '%', 50.3),
  ('COc1ccc(C(=O)C2=CC(=O)C(=O)C2)cc1OC', '%', 94.3),
  ('Cc1nc2nc(C(F)(F)F)[nH]c2nc1C', '%', 98.7);

###

System: PC-3 prostate
Experiment: NCI-60 one-dose screen, 48 h (100 = growth as untreated, 0 = no growth, -100 = all killed)
Conditions: 10 µM unless noted
This is part of a sample that, as a whole, favours compounds with a hit. Of some 83,000 tested, about 20% had one in any assay.
The label is met for growth below 70% and not met for growth equal to or exceeding 70%.

INSERT INTO results (compound, qualitative_label) VALUES
  ('O=C(CC(O)c1ccccc1)Nc1ccccn1 (stereo not given)', 'not met'),
  ('COc1ccc(NS(=O)(=O)c2ccc(-c3cnc(C4CC4)o3)cc2)cc1', 'met'),
  ('CC(C)(C)[Si](C)(C)OC1[C@@H](COC(=O)NC(=O)CCl)O[C@@H](n2cnc3c(N)ncnc32)[C@H]1O[Si](C)(C)C(C)(C)C (stereo not given in full)', 'met'),
  ('CCN(CC)CCCNc1ccc(C)c2sc3ccccc3c(=O)c12', 'met'),
  ('O=C1NC(=O)C(CSc2ccccc2)(c2ccccc2)N1 (stereo not given)', 'not met'),
  ('c1ccc2cc(Cn3c(-c4ccc5ccccc5c4)[n+](Cc4ccc5ccccc5c4)c4ccccc43)ccc2c1', 'met'),
  ('CCOC(=O)c1c(Cl)c2c(n1Cc1ccc(OC)cc1)-c1oncc1CCC2', 'met'),
  ('Cc1ccc(S(=O)(=O)N2CCc3ccc(O)c4c3C2CCc2ccccc2-4)cc1 (stereo not given)', 'not met'),
  ('c1ccc(-c2n(Cc3ccc4ccccc4n3)c3ccccc3[n+]2Cc2ccc3ccccc3n2)cc1', 'met'),
  ('NC(=O)c1cccc(-n2ccc3cc(NC(=O)Nc4ccc(Cl)c(Cl)c4)ccc32)n1', 'not met');

Every entry's value here was drawn from PubChem BioAssay (NCI).
